- tested target: KRAS G12C (Homo sapiens, UniProt P01116+P62937, G12C)
- Sequence (P01116 1-169 isoform P01116-2 G12C limits assumed): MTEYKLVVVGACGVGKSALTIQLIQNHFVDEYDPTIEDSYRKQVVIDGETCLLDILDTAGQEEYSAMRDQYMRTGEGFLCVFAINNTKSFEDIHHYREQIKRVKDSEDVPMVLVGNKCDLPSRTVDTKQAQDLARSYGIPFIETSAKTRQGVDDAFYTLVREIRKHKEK
- Sequence (P62937 whole entry): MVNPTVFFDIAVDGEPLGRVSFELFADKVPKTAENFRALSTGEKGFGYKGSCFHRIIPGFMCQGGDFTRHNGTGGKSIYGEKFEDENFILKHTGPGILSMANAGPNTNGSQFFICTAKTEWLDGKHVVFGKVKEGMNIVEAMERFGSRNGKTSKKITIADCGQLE
- run description: Ras-Raf disruption/FRET/MOA assay, KRAS G12C
- Type: biochemical
- test context: disruption of BRAF RBD binding, with Cyclophilin A; read-out: KRAS G12C FRET IC50
pIC50: −log10 of the molar value.

{"columns": ["compound", "tested target", "pIC50"],
 "data": [
  ["CCn1c(-c2cccnc2[C@H](C)OC)c2c3cc(ccc31)-c1cc(O)cc(c1)C[C@H](NC(=O)[C@H](C(C)C)N1CCC3(CCN(C(=O)[C@H]4CN4)CC3)C1=O)C(=O)N1CCC[C@H](N1)C(=O)OCC(C)(C)C2 [Compound 196]", "KRAS G12C (Homo sapiens, UniProt P01116+P62937, G12C)", "> 8.00"],
  ["CCn1c(-c2cnccc2COC)c2c3cc(ccc31)-c1cc(O)cc(c1)C[C@H](NC(=O)[C@H](C(C)C)N(C)C(=O)CN(C)C(=O)[C@@H]1CN1C(C)=O)C(=O)N1CCC[C@H](N1)C(=O)OCC(C)(C)C2 [Compound 35]", "KRAS G12C (Homo sapiens, UniProt P01116+P62937, G12C)", "7.00 to 8.00"],
  ["CCn1c(-c2cnccc2COC)c2c3cc(ccc31)-c1cccc(c1)C[C@H](NC(=O)[C@H](C(C)C)N(C)C(=O)CCN=C=NCCCN1CCOCC1)C(=O)N1CCC[C@H](N1)C(=O)OCC(C)(C)C2 [17 A and B]", "KRAS G12C (Homo sapiens, UniProt P01116+P62937, G12C)", "6.00 to 7.00"],
  ["CCn1c(-c2cccnc2[C@H](C)OC)c2c3cc(ccc31)-c1csc(n1)C[C@H](NC(=O)[C@H](C1CCCC1)N1CC[C@]3(CCN(C(=O)[C@@H]4N[C@@H]4C4CC4)C3)C1=O)C(=O)N1CCC[C@H](N1)C(=O)OCC(C)(C)C2 [Compound 234]", "KRAS G12C (Homo sapiens, UniProt P01116+P62937, G12C)", "6.00 to 7.00"]
]}

###

- tested target: KRAS WT (Homo sapiens, UniProt P01116+P62937)
- Sequence (P01116 1-169 isoform P01116-2 limits assumed): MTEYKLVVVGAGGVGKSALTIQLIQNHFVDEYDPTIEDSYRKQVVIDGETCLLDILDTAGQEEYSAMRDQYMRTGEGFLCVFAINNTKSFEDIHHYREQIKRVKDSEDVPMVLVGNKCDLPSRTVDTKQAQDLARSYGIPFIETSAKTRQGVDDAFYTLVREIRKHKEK
- Sequence (P62937 whole entry): as the sequence (P62937 whole entry) above
- run description: Ras-Raf disruption/FRET/MOA assay, KRAS WT
- Format: biochemical
- Description: Disruption of B-Raf Ras-Binding Domain (BRAF^RBD) Interaction with K-Ras by Compounds of the Invention (Also Called a FRET Assay or an MOA Assay) Note—The following protocol describes a procedure for monitoring disruption of K-Ras G12C (GMP-PNP) binding to BRAF^RBD by a compound of the invention. This protocol may also be executed substituting other Ras proteins or nucleotides, such as K-Ras G12D and K-Ras G13D. […]
pIC50: −log10 of the molar value.

{"columns": ["compound", "tested target", "pIC50"],
 "data": [
  ["CCn1c(-c2cnccc2COC)c2c3cc(ccc31)-c1cc(O)cc(c1)C[C@H](NC(=O)[C@H](C(C)C)N(C)C(=O)CN(C)C(=O)[C@H]1CN1)C(=O)N1CCC[C@H](N1)C(=O)OCC(C)(C)C2 [Example 7]", "KRAS WT (Homo sapiens, UniProt P01116+P62937)", "6.00 to 7.00"],
  ["CCC(C)N(C)C(=O)c1cncc(-c2c3c4cc(ccc4n2CC)-c2cc(O)cc(c2)C[C@H](NC(=O)[C@H](C(C)C)N(C)C(=O)CN(C)C(=O)[C@H]2CN2)C(=O)N2CCC[C@H](N2)C(=O)OCC(C)(C)C3)c1 (stereo partly drawn) [Compound 144]", "KRAS WT (Homo sapiens, UniProt P01116+P62937)", "6.00 to 7.00"],
  ["CCn1c(-c2cnccc2COC)c2c3cc(ccc31)-c1cc(O)cc(c1)C[C@H](NC(=O)[C@H](C(C)C)N(C)C(=O)CN(C)C(=O)[C@@H]1CN1)C(=O)N1CCC[C@H](N1)C(=O)OCC(C)(C)C2 [Compound 8]", "KRAS WT (Homo sapiens, UniProt P01116+P62937)", "6.00 to 7.00"],
  ["CCn1c(-c2cnccc2COC)c2c3cc(ccc31)-c1cc(O)cc(c1)C[C@H](NC(=O)[C@H](C(C)C)N(C)C(=O)CN(C)C(=O)[C@@H]1N[C@@H]1c1ccccc1)C(=O)N1CCC[C@H](N1)C(=O)OCC(C)(C)C2 [Compound 110]", "KRAS WT (Homo sapiens, UniProt P01116+P62937)", "7.00 to 8.00"],
  ["CCn1c(-c2cccnc2[C@H](C)OC)c2c3cc(ccc31)-c1cc(O)cc(c1)C[C@H](NC(=O)[C@H](C(C)C)N(C)C(=O)CN(C)C(=O)[C@H]1N[C@H]1C1CC1)C(=O)N1CCC[C@H](N1)C(=O)OCC(C)(C)C2 [Compound 134]", "KRAS WT (Homo sapiens, UniProt P01116+P62937)", "7.00 to 8.00"],
  ["CCn1c(-c2cnccc2COC)c2c3cc(ccc31)-c1cc(O)cc(c1)C[C@H](NC(=O)[C@H](C(C)C)N(C)C(=O)CN(C)C(=O)[C@@H]1CN1Cc1ccccc1)C(=O)N1CCC[C@H](N1)C(=O)OCC(C)(C)C2 (stereo partly drawn) [Compound 10]", "KRAS WT (Homo sapiens, UniProt P01116+P62937)", "6.00 to 7.00"]
]}

###

Measured IC50, listed per entry for reference.
- tested target: NRAS Q61R (Homo sapiens, UniProt P01111+P62937, Q61R)
- Construct: His6
- Sequence (P01111 whole entry Q61R): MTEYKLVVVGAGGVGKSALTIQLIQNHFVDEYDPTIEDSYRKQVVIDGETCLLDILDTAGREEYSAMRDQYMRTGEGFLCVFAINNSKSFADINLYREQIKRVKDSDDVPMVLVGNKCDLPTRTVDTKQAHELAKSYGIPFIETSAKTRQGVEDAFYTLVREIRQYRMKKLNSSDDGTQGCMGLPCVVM
- Sequence (P62937 whole entry): as the sequence (P62937 whole entry) above
- run description: Ras-Raf disruption/FRET/MOA assay, NRAS Q61R
- Type: biochemical
- test context: NRAS Q61R; read-out: NRAS Q61R FRET data IC50
assay endpoint: IC50

{"columns": ["mol", "tested target", "assay endpoint", "reported measurement"],
 "data": [
  ["CCn1c(-c2cccnc2[C@H](C)OC)c2c3cc(ccc31)-c1cc(O)cc(c1)C[C@H](NC(=O)[C@H](C(C)C)N1CCCC3(CN(C(=O)[C@@H]4CN4)C3)C1=O)C(=O)N1CCC[C@H](N1)C(=O)OCC(C)(C)C2", "NRAS Q61R (Homo sapiens, UniProt P01111+P62937, Q61R)", "IC50", "100 to 1000 nM"],
  ["CCn1c(-c2cccnc2[C@H](C)OC)c2c3cc(ccc31)-c1cc(O)cc(c1)C[C@H](NC(=O)[C@H](C(C)C)N1CO[C@]3(CCN(C(=O)[C@H]4CN4)C3)C1=O)C(=O)N1CCC[C@H](N1)C(=O)OCC(C)(C)C2", "NRAS Q61R (Homo sapiens, UniProt P01111+P62937, Q61R)", "IC50", "100 to 1000 nM"],
  ["CCn1c(-c2cccnc2[C@H](C)OC)c2c3cc(ccc31)-c1cc(cc(C(F)F)c1)C[C@H](NC(=O)[C@H](C1CCCC1)N1CC[C@]3(CCN(C(=O)[C@@H]4N[C@@H]4C4CC4)C3)C1=O)C(=O)N1CCC[C@H](N1)C(=O)OCC(C)(C)C2", "NRAS Q61R (Homo sapiens, UniProt P01111+P62937, Q61R)", "IC50", "1000 to 10000 nM"],
  ["CCn1c(-c2cccnc2[C@H](C)OC)c2c3cc(ccc31)-c1cc(O)cc(c1)C[C@H](NC(=O)[C@H](C1CCCC1)N1CC[C@@]3(CCN(C(=O)[C@@H]4N[C@@H]4C4CC4)C3)C1=O)C(=O)N1CCC[C@H](N1)C(=O)OCC(C)(C)C2", "NRAS Q61R (Homo sapiens, UniProt P01111+P62937, Q61R)", "IC50", "1000 to 10000 nM"]
]}

###

Measured pIC50, listed per entry for reference.
- tested target: KRAS Q61H (Homo sapiens, UniProt P01116+P62937, Q61H)
- Sequence (P01116 1-169 isoform P01116-2 Q61H limits assumed): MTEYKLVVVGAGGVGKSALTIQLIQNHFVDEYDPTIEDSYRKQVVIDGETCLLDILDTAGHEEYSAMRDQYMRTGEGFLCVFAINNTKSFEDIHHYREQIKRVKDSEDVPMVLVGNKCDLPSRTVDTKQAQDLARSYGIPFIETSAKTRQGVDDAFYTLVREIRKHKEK
- Sequence (P62937 whole entry): as the sequence (P62937 whole entry) above
- run description: Ras-Raf disruption/FRET/MOA assay, KRAS Q61H
- Format: biochemical
- test context: KRAS Q61H; read-out: KRAS Q61H FRET data IC50
pIC50: −log10 of the molar value.
assay endpoint: pIC50

{"columns": ["compound", "assay endpoint", "reported measurement"],
 "data": [
  ["CCn1c(-c2cccnc2[C@H](C)OC)c2c3cc(ccc31)-c1csc(n1)C[C@H](NC(=O)[C@H](C(C)C)N(C)C(=O)N1CCC[C@@H](N(C)C(=O)[C@H]3CN3)C1)C(=O)N1CCC[C@H](N1)C(=O)OCC(C)(C)C2 (atropisomer, axis not shown) [Compound 289]", "pIC50", "7.00 to 8.00"],
  ["CCn1c(-c2cc(N3CCN(C)CC3)cnc2[C@H](C)OC)c2c3cc(ccc31)-c1csc(n1)C[C@H](NC(=O)[C@H](C1CCCC1)N1CC[C@]3(CCN(C(=O)[C@@H]4N[C@@H]4C4CC4)C3)C1=O)C(=O)N1CCC[C@H](N1)C(=O)OCC(C)(C)C2 [Compound 324]", "pIC50", "6.00 to 7.00"],
  ["CCn1c(-c2cccnc2[C@H](C)OC)c2c3cc(ccc31)-c1csc(n1)C[C@H](NC(=O)[C@H](C(C)C)N(C)C(=O)N1CCC[C@@H](N(C)C(=O)[C@@H]3CN3)C1)C(=O)N1CCC[C@H](N1)C(=O)OCC(C)(C)C2 (atropisomer, axis not shown) [Compound 291]", "pIC50", "7.00 to 8.00"]
]}
